# target_of_assay: T1, human LILRB2 expressed on cells (293T-LILRB2, CHO-K1-LILRB2) (human, UniProt Q8N423 22-597)
# T1 construct: whole, on cells; the cell line is named under assay; also called HEK293T-LILRB2
# method: flow cytometry, blockade of His-tagged HLA-G tetramer binding to 293T-LILRB2 cells; fit table under the graph
Exercise: for every item that follows, state its recorded pIC50.
One number for each entry, as −log10 of the molar value.

Antibody 2E1_FF4 (antibody, V domains shown) VH: EVQLVESGGGLVQPGGSLRLSCAVSGYSITSGYYWNWIRQAPGKGLEWVAYISYDGNNWYNPSLKNRFTISRDTSKNTFYLQMNSLRAEDTAVYYCAREESTMITTAWFAYWGQGTLVTVSS VL: DIQMTQSPSSLSASVGDRVTITCRASENIYSNLAWYQQKPGKAPKLLIYGATNLASGVPSRFSGSGSGTDYTLTISSLQPEDFATYYCQHFWDTPYTFGQGTKVEIK
9.60

Let us move to another entry and its pIC50.
Entry under test: Antibody h#2E1 (antibody, V domains shown, Humanized variant of 11B12; detected with anti-human IgG) VH: EVQLVESGGGLVQPGGSLRLSCAVSGYSITSGYYWNWIRQAPGKGLEWVAYISYDGNNNYNPSLKNRFTISRDTSKNTFYLQMNSLRAEDTAVYYCAREESTMITTAWFAYWGQGTLVTVSS VL: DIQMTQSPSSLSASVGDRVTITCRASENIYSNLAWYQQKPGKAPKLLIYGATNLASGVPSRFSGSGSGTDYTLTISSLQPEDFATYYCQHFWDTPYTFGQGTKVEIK . Its pIC50 was 9.44
